- Tested on: HL-60(TB) leukemia
- Protocol: NCI tumour cell line growth inhibition, 48 h
Measure Name: TGI

OC(c1cc2ccc(C(F)(F)F)cc2c2cc(C(F)(F)F)ccc12)C1CCCCN1 (stereo unspecified) ... > 100 µM
CCOC(=O)/C=C(\C(=O)OCC)n1ccc(=O)n(Cc2cn(COCCOC(C)=O)nn2)c1=O ... 41.3 µM
CNc1ccc(C(=O)CC(O)CCC(C)C2OC(=O)CC(O)CC(=O)CC(O)CC(O)CC(O)CC(O)CC3(O)CC(O)C(C(=O)NCCN4CCCCC4)C(CC(OC4OC(C)C(O)C(N)C4O)/C=C/C=C/C=C/C=C\C=C/C=C/C=C/C2C)O3)cc1 (stereo unspecified) ... > 100 µM

Provide reported TGI for each item, in the same order as listed.
1. C=C1C[C@@H]2CC[C@@]34C[C@H]5O[C@H]6[C@@H](O3)[C@H]3O[C@H](CC[C@@H]3O[C@H]6[C@@H]5O4)CC(=O)C[C@@H]3[C@@H](OC)[C@@H](C[C@H](O)CN)O[C@H]3C[C@H]3O[C@@H](CC[C@@H]1O2)C[C@@H](C)C3=C
2. C=C1C(O)CC[C@]2(C)C1C1OC(C)(C)O[C@]13CC(=O)C(C)=C([C@H]1OC(C)(C)OC12)C3(C)C (stereo partly specified)

< 0.0145 µM
> 100 µM

Provide reported TGI for each item, in the same order as listed.
1. CSc1n[nH]c(N)c1C(=O)Nc1ccccc1
2. COc1ccc2[nH]c3c(c2c1)[C@H](C)C[C@@H]1C(=O)N(c2ccccc2)C(=O)[C@H]31
3. C=C(CN(C)C)C(=O)c1ccccc1[N+](=O)[O-]
4. COc1cc(NC(C)=O)ccc1C(=O)NN1C(=O)/C(=C/c2ccco2)N=C1c1ccccc1

["> 100 µM", "> 100 µM", "8.2 µM", "> 50 µM"]

Provide reported TGI for each item, in the same order as listed.
1. NC(=O)N/N=C1\CC2C3CC4C2C4C13 (stereo unspecified)
2. O=c1oc2ccccc2[n+]([O-])c1-c1ccccc1
3. N#Cc1nc(C2CCC2)oc1N
4. COc1ccc(COCC[C@H](C)OC2OC(CO[Si](C)(C)C(C)(C)C)C(OC(=O)CCCN=[N+]=[N-])C(OC(=O)CCCN=[N+]=[N-])C2OC(=O)CCCN=[N+]=[N-])cc1 (stereo partly specified)
5. O=c1[nH]nc(Cc2ccccc2)n1/N=C/c1ccncc1
6. O=c1cc(N2CCCC2)[nH]c(=O)n1-c1ccccc1
7. Nc1ncnc2c1ncn2CC(O)CO (stereo unspecified)

> 100 µM
> 100 µM
> 100 µM
41.5 µM
> 100 µM
> 100 µM
> 100 µM

Provide reported TGI for each item, in the same order as listed.
1. O=C1CSC2=NC3=C(COC/C3=C\c3ccc(Br)cc3)C(c3ccc(Br)cc3)N12 (stereo unspecified)
2. O=C(O)c1ccccc1/C=N/N=C1c2ccccc2-c2ccccc21

36.9 µM
80.8 µM

Provide reported TGI for each item, in the same order as listed.
1. CCOC(=O)/C(O)=C1\C(=O)N(C)C(=O)C1c1cccc(OC)c1 (stereo unspecified)
2. COCCOCCOC1=CC(=O)c2c(O)ccc(O)c2C1=O
3. Cc1ccccc1C(=O)N1CCN(C(=O)c2ccccc2C)CC1

["> 100 µM", "2.52 µM", "> 100 µM"]
